Data provenance is PubChem BioAssay AID485344.

Reported inhibition values follow for various compounds
# tested target: D(2) dopamine receptor (Homo sapiens)
# assay details: HTS Assay for Allosteric Antagonists of the Human D2 Dopamine Receptor: Primary Screen for Antagonists; further: 0% is about no effect
# conditions: HEK293 TREx D2 cells, calcium flux, dopamine EC80; at 10 µM; hits give high values
Hit rate of the full screen: of about 340,000 compounds, about 6,900 (2%) were called active. What follows is part of a selection rich in actives, with near analogues and random picks from the rest.
Could you give me the number in %? Just the number is fine.

Which inhibition value belongs to "O=C(COC(=O)c1ccccc1SCC(=O)NC1CCCCC1)NC1CCCCC1" ? -0.864

Request: "COc1cc(C(=O)N2CCN(C/C=C/c3ccccc3)CC2)cc(OC)c1C" 0.0553

Request: "COC(=O)c1ccc(CN2CCC(CO)(Cc3ccc(OC)cc3)CC2)cc1" 63.2

Request: "COc1ccc(CN2CCN(C(=O)c3cc(C4CC4)nn3-c3ccccc3)CC2)cc1F" -4.93

Request: "OCC[C@H]1C[C@@H](O)[C@H](O)[C@]2(OCCCc3ccccc32)O1" 5.04

---
Which inhibition value belongs to "O=C(COC(=O)c1ccccc1Cl)NC1CCCCCCC1" ? 40.2

Request: "Cc1c(C(=O)OCC(=O)N2CCCC2=O)oc2ccccc12" 10.7

Request: CC(=O)c1sc(NC(=O)CCN2C(=O)C3CC=CCC3C2=O)nc1-c1ccccc1 (stereo unspecified) -8.46

Request: "COc1ccc(CC2(CO)CCN(Cc3cnn(C)c3)CC2)cc1" -4.17

Request: CC(Sc1nnc(-c2cccs2)n1C1CC1)C(=O)NCC1CCCO1 (stereo unspecified) 13.5

Request: "N/C(=N\OC(=O)/C=C/c1ccccc1)c1ccc(Br)cc1" -2.34
